- Target under test: T1, recombinant gp120 of HIV-1 strain IIIb (HIV-1 strain IIIb, UniProt P04578 33-511)
- T1 construct: domain: gp120; also called IIIb-derived gp120; gp 120 (IIIB strain)
- Assay name: SPR BIAcore, gp120 on chip;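 note: fab fragments flowed at 0.5 to 10 ug/ml over immobilized gp120, resonance units tracked during association and dissociation, equilibrium constants derived from the rate constants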
Quantity name: pKd
Please note pKd is a logarithmic value: minus log10 of concentration in mol/L. Answer with that number alone.

Answered cases to consult:
Binder | Quantity name | Measured result
composite Fab H101/L42-1 (Fab, V domains shown) VH: LEQSGAEVKKPGASVKVSCQASGYRFSHFTVHWVRQAPGQRFEWHGWINPYNGNKEFSAKFQDRVTFTADTSANTAYMELRSLRSADTAVYYCARVGEWGWHQRRYDNYYMDVWGKGTTVIVSS VL: ELTQSPGTLSLSPGERATFSCRSSHQLDGSRVAWYQHKPGQAPRLVIHGVSNRASGISDRFSGSGSGTDFTLTITRVEPEDFALYYCQQYGWPFYTFGQGTKLERKR | pKd | 9.89
composite Fab H33/LH-11 (Fab, V domains shown) VH: LEQSGAEVKKPGASVKVSCQASGYRFSHFTLHWVRQAPGQRFEWHGWINPYNGNKEFSAKFQDRVTFTADTSANTAYMELRSLRSADTAVYYCARVGEWGWEMFRYDNYYMDVWGKGTTVIVSS VL: ELTQSPGTLSLSPGERATFSCRSSHQLDGSRVAWYQHKPGQAPRLVIHGVSNRASGISDRFSGSGSGTDFTLTITRVEPEDFALYYCQTYGRGHYTFGQGTKLERKR | pKd | 10.13

# lookup: pKd of composite Fab H33/L42-17 (Fab, V domains shown) VH: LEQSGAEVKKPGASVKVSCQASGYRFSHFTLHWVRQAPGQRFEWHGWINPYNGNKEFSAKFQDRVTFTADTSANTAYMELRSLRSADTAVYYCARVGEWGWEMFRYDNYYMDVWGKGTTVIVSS VL: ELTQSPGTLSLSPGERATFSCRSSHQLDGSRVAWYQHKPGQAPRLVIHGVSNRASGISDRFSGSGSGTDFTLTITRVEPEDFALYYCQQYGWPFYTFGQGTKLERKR
9.74
